Just for reference, patent US10800813 is where these values come from.

Biological target: T1, Rat plasma Kallikrein (rat, UniProt P14272 391-638, limits assumed)
T1 construct: domain: catalytic domain; also called rPK; rat PK
T1 sequence (P14272 391-638 limits assumed): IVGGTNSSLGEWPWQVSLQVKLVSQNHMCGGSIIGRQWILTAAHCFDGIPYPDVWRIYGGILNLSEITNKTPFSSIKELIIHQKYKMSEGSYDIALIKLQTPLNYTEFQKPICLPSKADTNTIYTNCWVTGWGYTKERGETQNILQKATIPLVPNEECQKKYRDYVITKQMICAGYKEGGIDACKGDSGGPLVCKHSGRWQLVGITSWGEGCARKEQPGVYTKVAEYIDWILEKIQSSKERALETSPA
Test: enzyme inhibition assay; values relative, not absolute
Numbered stars: 1 amine (or outer) side, 2 acyl side, 3 side chain; on linkers, the order of the positions; unused ones are H or OH. Bridge positions count the residues as written; N and C are the ends. Square brackets hold non-standard residues; d marks the D form. Phe(4-guanidino) = N=C(N)Nc1ccc(C[C@H](N)C(=O)O)cc1; TBMB = c1c(C[*:1])cc(C[*:3])cc1C[*:2]; NMeR = CN[C@@H](CCCNC(=N)N)C(=O)O; hArg = N=C(N)NCCCC[C@H](N)C(=O)O
Examples of binders with documented IC50 follow.
Give your result in nM as a bare value.

# count of solved cases: 3
{"columns": ["BINDER", "OBSERVATION_TYPE", "DATA_VALUE"],
 "data": [
  ["Ac-CSWPA[hArg]CLHQDLC-NH2 (linker 1-7-13 via TBMB) [Ac-(06-34-18) HomoArg5]", "IC50", 64],
  ["Ac-CSWPA[NMeR]CLHQDLC-NH2 (linker 1-7-13 via TBMB; SMILES CC(=O)N[C@H]1CSCc2cc3cc(c2)CSC[C@H](NC(=O)[C@H](CCCNC(=N)N)N(C)C(=O)[C@H](C)NC(=O)[C@@H]2CCCN2C(=O)[C@H](Cc2c[nH]c4ccccc24)NC(=O)[C@H](CO)NC1=O)C(=O)N[C@@H](CC(C)C)C(=O)N[C@@H](Cc1c[nH]cn1)C(=O)N[C@@H](CCC(N)=O)C(=O)N[C@@H](CC(=O)O)C(=O)N[C@@H](CC(C)C)C(=O)N[C@H](C(N)=O)CSC3) [Ac-(06-34-18) NMeArg5]", "IC50", 98],
  ["Ac-CSWPA[Phe(4-guanidino)]CLHQDLC-NH2 (linker 1-7-13 via TBMB; SMILES CC(=O)N[C@H]1CSCc2cc3cc(c2)CSC[C@H](NC(=O)[C@H](Cc2ccc(NC(=N)N)cc2)NC(=O)[C@H](C)NC(=O)[C@@H]2CCCN2C(=O)[C@H](Cc2c[nH]c4ccccc24)NC(=O)[C@H](CO)NC1=O)C(=O)N[C@@H](CC(C)C)C(=O)N[C@@H](Cc1c[nH]cn1)C(=O)N[C@@H](CCC(N)=O)C(=O)N[C@@H](CC(=O)O)C(=O)N[C@@H](CC(C)C)C(=O)N[C@H](C(N)=O)CSC3) [Ac-(06-34-18) 4GuanPhe5]", "IC50", 21]
]}

Alright, here's another binder for you.
Q. Consider the binder Ac-CSWPARCLHQDLC-NH2 (linker 1-7-13 via TBMB; SMILES CC(=O)N[C@H]1CSCc2cc3cc(c2)CSC[C@H](NC(=O)[C@H](CCCNC(=N)N)NC(=O)[C@H](C)NC(=O)[C@@H]2CCCN2C(=O)[C@H](Cc2c[nH]c4ccccc24)NC(=O)[C@H](CO)NC1=O)C(=O)N[C@@H](CC(C)C)C(=O)N[C@@H](Cc1c[nH]cn1)C(=O)N[C@@H](CCC(N)=O)C(=O)N[C@@H](CC(=O)O)C(=O)N[C@@H](CC(C)C)C(=O)N[C@H](C(N)=O)CSC3, also called Ac-(06-34-18) wildtype; Ac-(06-34-18) WPAR) [Ac-06-34-18(TMB)-NH2] . State its measured IC50.
A. 1.7
